The entries below come with measured remaining at 3 µM values attached.
Test: Stability in Sprague-Dawley rat liver microsomes assessed as parent compound remaining level at 3 uM pre-incubated for 30 mins before NADPH addition by LC-MS/MS analysis
Format: ADME, Microsome
Settings: read-out: Stability

Check out these entries, answers already filled in.
>  <chemicalStructure>
COc1ncc(-c2ccc(-c3cnc4c(c3)CN(C)C4=O)s2)cc1[N-]S(=O)(=O)c1ccc(F)cc1F.[Na+]

>  <remaining at 3 µM>
100%

$$$$
>  <chemicalStructure>
CN1Cc2cc(-c3ccc(-c4cncc([N-]S(=O)(=O)c5ccc(F)cc5F)c4)s3)cnc2C1=O.[Na+]

>  <remaining at 3 µM>
100%

$$$$
>  <chemicalStructure>
COc1ncc(-c2ccc(-c3cnc4c(c3)CN(C)C4=O)s2)cc1[N-]S(=O)(=O)c1ccccc1C(F)(F)F.[Na+]

>  <remaining at 3 µM>
50%

$$$$
>  <chemicalStructure>
O=C1NCc2ncc(-c3ccc(-c4cncc([N-]S(=O)(=O)c5ccc(F)cc5F)c4)s3)cc21.[Na+]

>  <remaining at 3 µM>
100%

$$$$
>  <chemicalStructure>
COc1ncc(-c2ccc(-c3cnc4c(c3)CN(C)C4=O)s2)cc1[N-]S(=O)(=O)c1ccccc1[N+](=O)[O-].[Na+]

>  <remaining at 3 µM>
80%

$$$$

query: Which remaining at 3 µM reading was recorded for the compound `CN1Cc2cc(-c3ccc(-c4cncc([N-]S(=O)(=O)c5cccc(C(F)(F)F)c5)c4)s3)cnc2C1=O.[Na+]` ?
result: 84%

query: Query: remaining at 3 µM; subject: `CN1Cc2cc(-c3ccc(-c4cncc([N-]S(=O)(=O)c5ccccc5C(F)(F)F)c4)s3)cnc2C1=O.[Na+]`
result: 36%
